TGT: LMO2-iDAb LMO2dm3 interaction (Homo sapiens)
Construct: LMO2 cDNA was cloned into the pEF-RLuc8-MCS and pEF-MCS-RLuc8 plasmids; expressed in transfected cells; host or cells: HEK293T
Sequence (P25791 1-158): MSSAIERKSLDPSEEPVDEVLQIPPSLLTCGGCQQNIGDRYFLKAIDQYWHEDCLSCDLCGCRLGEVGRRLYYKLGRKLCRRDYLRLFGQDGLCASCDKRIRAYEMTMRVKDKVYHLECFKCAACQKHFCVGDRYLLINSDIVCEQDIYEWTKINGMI
PROTOCOL SUMMARY: LMO2-iDAb LMO2dm3 BRET assay
Type: cell-based
CONDITION PARAMETERS: BRET competition, Abd concentration 1 (or 5), 10, 20 μM, 22 h
PROPERTY LABEL: inhibition of LMO2-iDAb LMO2dm3 interaction (in words)

Example results:
>>> reported_measurement("O=C(NCCc1ccccc1)c1cnc(N2CCN(Cc3ccc(Cl)cc3)C2=O)o1")
"unable to inhibit"
>>> reported_measurement("COc1ccc(NC(=O)c2cnc(N3CCN(Cc4ccc(Cl)cc4)C3=O)o2)cc1OC")
"unable to inhibit"
>>> reported_measurement("CS(=O)(=O)Nc1ccccc1NC(=O)c1cnc(N2CCN(Cc3ccccc3)C2=O)s1")
"unable to inhibit"
>>> reported_measurement("COc1cccc(CN2CCN(c3nccc(C(=O)Nc4ccc(-n5cccc5)cc4)n3)CC2)c1")
"do not affect"

Consider the record given below.
What the record says about COc1cccc(CN2CCCN(c3nc(C(=O)Nc4ccc(-n5cccc5)cc4)co3)C2=O)c1 : inhibition of LMO2-iDAb LMO2dm3 interaction (in words) is do not affect
